Tested on: NCI-H2196;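 also: cell viability assay used as the readout of growth inhibition in NCI-H2196 cells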
experiment: cells
Type: functional, cell-based, Homo sapiens
experimentalConditions: Homo sapiens, NCI-H2196
Description: SANGER: Inhibition of human NCI-H2196 cell growth in a cell viability assay.
pIC50: −log10 of the molar value. Counter-ions that a name gives are not always drawn.
measure: pIC50

Required: pIC50, one value per compound below.
1. N[C@@H](CSC(c1ccccc1)(c1ccccc1)c1ccccc1)C(=O)O [S-TRITYL-L-CYSTEINE]
2. COC1=CC(c2cc3ccccc3[nH]2)=N/C1=C\c1[nH]c(C)cc1C [OBATOCLAX MESYLATE]
3. CC[C@H](CO)Nc1nc(NCc2ccccc2)c2ncn(C(C)C)c2n1 [SELICICLIB]
4. CC(=O)O[C@H]1C(=O)[C@@]2(C)[C@H]([C@H](OC(=O)c3ccccc3)[C@]3(O)C[C@H](OC(=O)[C@H](O)[C@@H](NC(=O)c4ccccc4)c4ccccc4)C(C)=C1C3(C)C)[C@]1(OC(C)=O)CO[C@@H]1C[C@@H]2O [PACLITAXEL]
5. C#Cc1cccc(Nc2ncnc3cc(OCCOC)c(OCCOC)cc23)c1 [ERLOTINIB]

Output:
1. < 5.29
2. 5.47
3. < 4.80
4. < 6.99
5. < 5.70

Input: Fill in the blank: the reported pIC50 of COc1cc2ncn(-c3cc(OCc4ccccc4C(F)(F)F)c(C(N)=O)s3)c2cc1OC [GW843682X] is ____.
Output: < 6.59
